These entries and their values trace back to ChEMBL document CHEMBL1156597.

test system: A549; assay: Cytotoxicity against human A549 cells after 48 hrs by SRB assay; type: functional, cell-based; settings: Homo sapiens, A549, 48 h
PROPERTY_NAME: LC50 (nM)
Write the answer as a number in nM, unit excluded.

Illustrative cases are given below, each with its answer.
ITEM_SMILES	PROPERTY_NAME	EXPERIMENTAL_RESULT
C/C=C1\NC(=O)[C@H](Cc2ccccc2)NC(=O)[C@@H](C(C)C)NC(=O)[C@@H]([C@H](C)CC)NC(=O)[C@H](NC(=O)[C@H](NC(=O)[C@H](CCCN)NC(=O)[C@H]2Cc3ccccc3CN2C(=O)[C@H](NC(=O)[C@@H](NC(=O)[C@@H](NC(=O)[C@H](NC(=O)CC[C@@H](C)CC)C(C)C)[C@@H](C)O)C(C)C)C(C)C)[C@H](C)CC)[C@H](C)OC(=O)[C@H](C(C)C)NC1=O	LC50	6500
C/C=C1\NC(=O)[C@H](Cc2ccccc2)NC(=O)[C@@H](C(C)C)NC(=O)[C@@H]([C@H](C)CC)NC(=O)[C@H](NC(=O)[C@H](NC(=O)[C@H](CCCN)NC(=O)[C@H]2CCCN2C(=O)[C@H](NC(=O)[C@@H](NC(=O)[C@@H](NC(=O)[C@H](NC(=O)CCCCCC)C(C)C)[C@@H](C)O)C(C)C)C(C)C)[C@H](C)CC)[C@H](C)OC(=O)[C@H](C(C)C)NC1=O	LC50	1150

Let us move to another entry and its LC50.
Entry C/C=C1\NC(=O)[C@H](Cc2ccccc2)NC(=O)[C@@H](C(C)C)NC(=O)[C@@H]([C@H](C)CC)NC(=O)[C@H](NC(=O)[C@H](NC(=O)[C@H](CCCN)NC(=O)[C@H]2CCCN2C(=O)[C@H](NC(=O)[C@H](CCC2CCCCC2)NC(=O)[C@@H](NC(=O)[C@@H](CC2CCCCC2)NC(=O)CCCC(C)C)[C@@H](C)O)C(C)C)[C@H](C)CC)[C@H](C)OC(=O)[C@H](C(C)C)NC1=O — recorded LC50 = 1670

###

assay: Cytotoxicity against human IGROV cells after 48 hrs by SRB assay; format: functional
PROPERTY_NAME: TGI
The reply must contain the numeric value and, after it, the unit.

Illustrative cases are given below, each with its answer.
MOLECULE	EXPERIMENTAL_RESULT
C/C=C1\NC(=O)[C@H](Cc2ccccc2)NC(=O)[C@@H](C(C)C)NC(=O)[C@@H]([C@H](C)CC)NC(=O)[C@H](NC(=O)[C@H](NC(=O)[C@H](CCCN)NC(=O)[C@H]2CCCN2C(=O)[C@H](NC(=O)[C@@H](NC(=O)[C@@H](NC(=O)[C@H](NC(=O)CCCC(C)C)C(C)C)[C@@H](C)O)C(C)C)C(C)C)[C@H](C)CC)[C@H](C)OC(=O)[C@H](C(C)C)NC1=O [KAHALALIDE F]	1180 nM
C/C=C1\NC(=O)[C@H](Cc2ccccc2)NC(=O)[C@@H](C(C)C)NC(=O)[C@@H]([C@H](C)CC)NC(=O)[C@H](NC(=O)[C@H](NC(=O)[C@H](CCCN)NC(=O)[C@H]2CCCN2C(=O)[C@H](NC(=O)[C@@H](NC(=O)[C@@H](NC(=O)[C@H](NC(=O)CCCC(C)C)C(C)C)[C@@H](C)O)C(C)C)C(C)C)[C@H](C)CC)[C@@H](C)OC(=O)[C@H](C(C)C)NC1=O	106000 nM

Let us move to another entry and its TGI.
Entry CC[C@@H]1NC(=O)[C@H](Cc2ccccc2)NC(=O)[C@@H](C(C)C)NC(=O)[C@@H]([C@H](C)CC)NC(=O)[C@H](NC(=O)[C@H](NC(=O)[C@H](CCCN)NC(=O)[C@H]2CCCN2C(=O)[C@H](NC(=O)[C@@H](NC(=O)[C@@H](NC(=O)[C@H](NC(=O)CCCC(C)C)C(C)C)[C@@H](C)O)C(C)C)C(C)C)[C@H](C)CC)[C@H](C)OC(=O)[C@H](C(C)C)NC1=O — recorded TGI = 2220 nM
